System: OVCAR-8 ovarian
PROTOCOL TEXT: NCI tumour cell line growth inhibition, 48 h

MOLECULE: CCOC(=O)c1c(SC(=O)c2ccc(OC)cc2)n(-c2ccccc2)c(=S)n(-c2ccccc2)c1=O
LIMIT SIGN: =
TGI (µM): 76.5

MOLECULE: CCCCCCCCCCCCCCCCNc1ccn(C2CC(O)C(COC(c3ccccc3)(c3ccccc3)c3ccc(OC)cc3)O2)c(=O)n1 (centres undefined)
LIMIT SIGN: >
TGI (µM): 100

MOLECULE: O=C1CSC(c2ccc(Cl)cc2Cl)N1c1ccc(Oc2ccc(Cl)cc2)c(Cl)c1 (centres undefined)
LIMIT SIGN: >
TGI (µM): 100

MOLECULE: CCCCOC1OC(COC(=O)C(C)C)C(OC(=O)C(C)C)C(O)C1OC1OC(C)C(OC(=O)CCC)C(OC(=O)C(C)C)C1O (centres undefined)
LIMIT SIGN: =
TGI (µM): 37.8

MOLECULE: COc1ccccc1C1(c2c(OC)c(=O)c2=O)SCCCS1
LIMIT SIGN: >
TGI (µM): 100

MOLECULE: COc1cc(-c2c3c(cc4c2OCO4)[C@@H](Nc2ccc(-c4ccc(-c5ccc(N[C@@H]6c7cc8c(cc7C(c7cc(OC)c(O)c(OC)c7)[C@H]7C(=O)OC[C@H]67)OCO8)cc5)cc4)cc2)[C@H]2COC(=O)[C@@H]2C3)cc(OC)c1O (some centres undefined)
LIMIT SIGN: =
TGI (µM): 3.77

MOLECULE: C#CCN(Cc1ccc2nc(-c3ccccc3)c(N)nc2c1)c1cc(OC)c(OC)c(OC)c1
LIMIT SIGN: >
TGI (µM): 100

MOLECULE: CN1CCN(c2nc(-c3csc(-c4cccs4)n3)cc3ccccc23)CC1
LIMIT SIGN: =
TGI (µM): 3.97

MOLECULE: O=C1N(Cc2ccccc2Cl)c2ccccc2C12NN=C(c1cccc(Cl)c1)S2 (centres undefined)
LIMIT SIGN: =
TGI (µM): 4.41

MOLECULE: Nc1nc(Cl)c(Cl)c(NCC2(O)CCC2)n1
LIMIT SIGN: >
TGI (µM): 100

MOLECULE: COc1cccc(SSc2cccc(OC)c2C(=O)O)c1C(=O)O
LIMIT SIGN: >
TGI (µM): 100

MOLECULE: COc1ccc(-c2c3c(nc4n[nH]c(-c5ccc(Cl)cc5)c24)-c2ccccc2C(=O)C3=O)cc1
LIMIT SIGN: =
TGI (µM): 3.44

MOLECULE: CC(C)=CC(=O)c1[nH]c2ccccc2c1CC(=O)NCCc1cncn1C
LIMIT SIGN: >
TGI (µM): 100

MOLECULE: COc1cccc(N2C(=O)C3C4C=C5c6ccccc6N(c6ccccc6)C5(C3C2=O)[C@H]2C(=O)N(c3cccc(OC)c3)C(=O)[C@@H]42)c1 (some centres undefined)
LIMIT SIGN: >
TGI (µM): 100

---

Tested on: TK-10 renal
PROTOCOL TEXT: NCI tumour cell line growth inhibition, 48 h

MOLECULE: COc1cc2oc3c(c(=O)c2c(O)c1/C=C/C(C)C)C(C=C(C)C)Oc1cc(O)ccc1-3 (stereo unspecified)
TGI: 31.5 µM
//
MOLECULE: Cn1c(=O)c2c(nc3sc4ccccc4c(=O)n32)n(C)c1=O
TGI: > 100 µM
//
MOLECULE: COc1cc(C)c2sc3ccccc3c(=O)c2c1NCCN(C)C
TGI: 21.2 µM
//
MOLECULE: C/C(=N\O)c1cccc[n+]1Cc1ccccc1
TGI: > 100 µM
//
MOLECULE: O=[N+]([O-])c1cc([N+](=O)[O-])c(Cl)cc1Cl
TGI: 3.16 µM
//
MOLECULE: O=[N+]([O-])c1cc2no[n+]([O-])c2cc1N1CCCCC1
TGI: 9.08 µM
//
MOLECULE: CCC(C)C1=C(O)[N+]2([O-])Oc3ccc(-c4c(O)c(O)c(-c5ccc(OC(C)=O)cc5)c(OC(C)=O)c4OC(C)=O)cc3OC2(C(C)CC)C(=O)N1O (stereo unspecified)
TGI: > 50 µM
//
MOLECULE: C/C(=C/CC[C@]1(CO)CC[C@]2(C)[C@H](CC[C@@H]3[C@@]4(C)CC[C@H](OC5OC(CO)C(O)C(O)C5OC5OC(CO)C(O)C(O)C5O)C(C)(C)[C@@H]4CC[C@]32C)[C@H]1O)CO (stereo partly specified)
TGI: > 100 µM
//
MOLECULE: CN(CCNC(=O)c1c[nH]c2c1Cc1ccccc1-2)CCNC(=O)c1c[nH]c2c1Cc1ccccc1-2
TGI: > 100 µM
//
MOLECULE: COc1cc2c(/C=C3/C(=O)Nc4ccc(Cl)cc43)c(Cl)[nH]c2cc1C
TGI: 8.48 µM
//
MOLECULE: O=C(SCc1cccc2ccccc12)c1ccc(Cl)cc1
TGI: > 100 µM
//
MOLECULE: Cn1cc(C(=O)c2ccccc2)cc(C(=O)c2ccccc2)c1=O
TGI: > 100 µM
//
MOLECULE: Cc1nc2ccccc2nc1N=Nc1ccccc1
TGI: > 100 µM
//
MOLECULE: NCCN1C(=O)c2ccccc2C1c1ccc(Cl)cc1 (stereo unspecified)
TGI: > 100 µM
//
MOLECULE: OC1(c2ccc(Cl)cc2)c2ccccc2-c2nc3ccccc3n21 (stereo unspecified)
TGI: > 100 µM
//
MOLECULE: N#Cc1cccc(C=NC23CC4CC(CC(C4)C2)C3)c1
TGI: > 100 µM
//
MOLECULE: Cc1c2c(n(CC(c3ccccc3)c3ccccc3)c1C)NN=C(C#N)S2(=O)=O
TGI: > 100 µM
//
MOLECULE: C(=Nc1ccc(-c2nc3ccccc3s2)cc1)c1ccc[nH]1
TGI: 64.2 µM
//
MOLECULE: CC(=O)OC1[C@H](OC(C)=O)C2=C(C)[C@@H](OC(C)=O)C[C@@]2(C(C)(C)O)[C@@H](OC(C)=O)[C@H]2[C@@]1(C)[C@@H](OC(C)=O)CC(OC(C)=O)[C@]21CO1 (stereo partly specified)
TGI: > 100 µM
//
MOLECULE: NC(CSSCC(N)C(=O)O)C(=O)O (stereo unspecified)
TGI: > 100 µM
//
MOLECULE: Cc1cccc2c3c(sc12)C(c1ccc(F)cc1)C(C#N)=C(N)O3 (stereo unspecified)
TGI: 23 µM
//
MOLECULE: COc1cccc(SSc2cccc(OC)c2C(=O)O)c1C(=O)O
TGI: > 100 µM
//
MOLECULE: CC(=O)Nc1n[n+]([O-])c2cc(C)ccc2[n+]1[O-]
TGI: 58.1 µM
//
MOLECULE: COC(=O)Nc1nc2ccc(S(=O)(=O)N3CCOCC3)cc2[nH]1
TGI: > 100 µM
//
MOLECULE: CCN1C(=NCCO)NS(=O)(=O)c2ccccc21
TGI: > 100 µM
//
MOLECULE: O=C1c2cccnc2C(=O)c2c1c(C(=O)OCCCN1CCCCC1)c1ccccn21
TGI: 4.18 µM
//
MOLECULE: O=c1c(Cc2ccc(Cl)cc2)nnc2sc(-c3ccc(-c4ccc(Cl)cc4Cl)o3)nn12
TGI: > 100 µM
//
MOLECULE: NC(=O)CC(N=Cc1nc(-c2ccccc2)oc1O)C(=O)O (stereo unspecified)
TGI: > 100 µM
//
MOLECULE: C=Cn1c([N+](=O)[O-])cnc1/C=C/c1ccc(C(=O)OCCN2CCOCC2)cc1
TGI: > 100 µM
//
MOLECULE: OC1COC2CC(Nc3ccccn3)OC12 (stereo unspecified)
TGI: > 100 µM
//
MOLECULE: Cc1ccc(S(=O)(=O)N/N=C/C(C)C)cc1
TGI: > 100 µM
//
MOLECULE: CC(=O)c1ccc(NC(=O)COC(=O)c2cccc3c(=O)c4ccccc4[nH]c23)cc1
TGI: 60.6 µM
//
MOLECULE: COc1cc(OC)c2c(c1)OC(c1cccnc1)C(c1ccccc1)C2=O (stereo unspecified)
TGI: > 100 µM
//
MOLECULE: COc1cc2c(c(OC)c1OC)-c1ccc(N=NC(N)=S)c(=O)cc1[C@@H](NC(C)=O)CC2
TGI: > 100 µM
//
MOLECULE: CC1(C)O[C@@H]2C[C@H]3[C@@H]4C[C@H](F)C5=CC(=O)C=C[C@]5(C)[C@@]4(F)[C@@H](O)C[C@]3(C)[C@]2(C(=O)CO)O1
TGI: > 100 µM
//
MOLECULE: COC(=O)c1cc(OC)c(OC)c(OC)c1-c1cc2c(cc1C=O)OCO2
TGI: > 10 µM

---

Test system: OVCAR-3 ovarian
PROTOCOL TEXT: NCI tumour cell line growth inhibition, 48 h; in the data active = GI50 below about 0.43 µM; inactive = the rest
Outcome codes: 1 = active, 0 = inactive

COMPOUND: Cc1ccc(-n2nnnc2-c2cnc(N3CCOCC3)nc2-c2cccc(C(F)(F)F)c2)cc1
CATEGORY LABEL: 0
--
COMPOUND: CC(=O)/C=C/c1ccc(OCc2ccc(Cl)cc2)cc1
CATEGORY LABEL: 0
--
COMPOUND: COc1ccc(CCN2CCC(CN(C)Cc3cnn(-c4ccccc4)c3)CC2)cc1
CATEGORY LABEL: 0
--
COMPOUND: CN(C)c1ccc(/C=N/S(=O)(=O)c2ccc(-n3c(-c4ccccc4)nc4c(Br)cc(Br)cc4c3=O)cc2)cc1
CATEGORY LABEL: 0
--
COMPOUND: COCCOCCOCc1n(Cc2ccc3ccccc3n2)c2ccccc2[n+]1Cc1ccc2ccccc2n1
CATEGORY LABEL: 0
--
COMPOUND: COc1ccc(C(=O)c2sc3nc(-c4cccs4)ccc3c2N)cc1OC
CATEGORY LABEL: 0
--
COMPOUND: NC1(Cc2ccc(Cl)cc2)CCN(c2ncnc3[nH]ccc23)CC1
CATEGORY LABEL: 0
--
COMPOUND: COc1ccc(-c2c3c(nc4n[nH]c(-c5ccc(Cl)cc5)c24)-c2ccccc2C(=O)C3=O)cc1
CATEGORY LABEL: 0
--
COMPOUND: O=C1c2cccnc2C(=O)c2c1c(C(=O)OCCCN1CCCCC1)c1ccccn21
CATEGORY LABEL: 1
--
COMPOUND: CC1(C)Cc2c(Br)c(Br)c(Br)c(OCC(O)CN3CCN(c4ccccn4)CC3)c2O1 (stereo not given)
CATEGORY LABEL: 0
